molecular target: Cytochrome P450 2D6 (Homo sapiens); experiment: Cytochrome P450 Family 2 Subfamily D Member 6 (CYP2D6) small molecule antagonists: luciferase reporter qHTS assay (AID 1671196); conditions: P450-Glo CYP2D6 enzyme assay, luciferin luminescence, 1 h; series mostly up to 115 µM; also: % is scaled to controls: 0 for no effect and ±100 for the full control effect; nearly all actives have a fitted effect of over 50% in size
Records with an inconclusive call do not appear. The source made the active and inactive calls. Calls follow the shape of the dose curve; as a rule, active = well fitted inhibition curve with a large enough effect in the repeat runs; inconclusive = weak or mixed curves; inactive = no such curve, though single readings can be large or run the other way.
observable: outcome

Query block: Answer with the recorded outcome for the compound listed here: `CCCOC(=O)c1ccccc1C(=O)OCCC`
Result block: inactive

Query block: Answer with the recorded outcome for the compound listed here: `Sc1ccccc1`
Result block: inactive

Query block: Answer with the recorded outcome for the compound listed here: `CN(C)C(=O)Nc1cccc(C(F)(F)F)c1`
Result block: inactive

---

experiment: qHTS assay to identify small molecule agonists of the endoplasmic reticulum stress response signaling pathway - cell viability counter screen (AID 1159517); details: ESRE-bla HeLa viability, CellTiter-Glo luminescence, 5 h; series mostly up to 61 µM;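 also: HeLa cells carrying an ER stress response element beta-lactamase reporter; % is scaled to controls: 0 for no effect and ±100 for the full control effect; nearly all actives have a fitted effect of over 50% in size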
Inconclusive results are not listed. Activity calls are given as the source filed them. Calls follow the shape of the full dose curve.
observable: outcome

Query block: Answer with the recorded outcome for the compound listed here: `CCCOC(=O)c1ccccc1C(=O)OCCC`
Result block: inactive

Query block: Answer with the recorded outcome for the compound listed here: `Cc1ccc(N=C=O)cc1N=C=O`
Result block: inactive

Query block: Answer with the recorded outcome for the compound listed here: O=C(O)C1C(C(=O)O)C2(Cl)C(Cl)=C(Cl)C1(Cl)C2(Cl)Cl (configuration not stated)
Result block: inactive

Query block: Answer with the recorded outcome for the compound listed here: `Cc1cc(O)ccc1Cl`
Result block: inactive

Query block: Answer with the recorded outcome for the compound listed here: `[N-]=[N+]=CC(=O)OC[C@H](N)C(=O)O`
Result block: inactive

Others:
Query block: Answer with the recorded outcome for the compound listed here: `O=[N+]([O-])c1ccc(Cl)cc1`
Result block: inactive

Query block: Answer with the recorded outcome for the compound listed here: `Cc1ccc(N)cc1`
Result block: inactive

---

molecular target: Thyrotropin receptor (Homo sapiens); test: qHTS assay to identify small molecule agonists of the thyroid stimulating hormone receptor (TSHR) signaling pathway (AID 1224843); conditions: TSHR-HEK293 cells, cAMP HTRF, agonist mode, 30 min; series mostly up to 92.4 µM; also: % is scaled to controls: 0 for no effect and ±100 for the full control effect; nearly all actives have a fitted effect of over 45% in size
Inconclusive results are not listed. Activity calls are given as the source filed them. Calls come from the whole dose curve.
observable: outcome

Guide cases for outcome, answers given:
Query block: Answer with the recorded outcome for the molecule listed here: `O=[N+]([O-])c1cc([As](=O)(O)O)ccc1O`
Result block: inactive

Query block: Answer with the recorded outcome for the molecule listed here: `COP(=S)(OC)SCN1C(=O)c2ccccc2C1=O`
Result block: inactive

Query block: Answer with the recorded outcome for the molecule listed here: `NNc1ccccc1`
Result block: inactive

Query block: Answer with the recorded outcome for the molecule listed here: `CCOP(=S)(OCC)Oc1ccc([N+](=O)[O-])cc1`
Result block: inactive

Query block: Answer with the recorded outcome for the molecule listed here: CC(=O)C1CCOC1=O (stereo unspecified)
Result block: inactive

Query block: Answer with the recorded outcome for the molecule listed here: `C=CCN=C=S`
Result block: inactive

Query block: Answer with the recorded outcome for the molecule listed here: `O=C(O)COc1ccccc1`
Result block: inactive

Query block: Answer with the recorded outcome for the molecule listed here: C=CC(=O)OCC(CC)CCCC (stereo unspecified)
Result block: inactive

Lab note: next molecule to report on.
Query block: Answer with the recorded outcome for the molecule listed here: `c1ccc2c(c1)CCCC2`
Result block: inactive

---

test: A CellTox Green Cytotoxicity Assay to monitor cytotoxicity in HEK293 cells - 8 hour (AID 1224884); conditions: CellTox Green fluorescence; series mostly up to 76.8 µM; also: % is scaled to controls: 0 for no effect and ±100 for the full control effect; nearly all actives have a fitted effect of over 35% in size
Inconclusive results are not listed. The source made the active and inactive calls. Calls come from the whole dose curve; as a rule, active = well fitted activation curve with a large enough effect in the repeat runs; inconclusive = weak or mixed curves; inactive = flat fitted curve, though single readings scatter.
observable: outcome

Query block: Answer with the recorded outcome for the molecule listed here: `Nc1cccc(Cl)c1`
Result block: inactive

Query block: Answer with the recorded outcome for the molecule listed here: O=C(O)C1C(C(=O)O)C2(Cl)C(Cl)=C(Cl)C1(Cl)C2(Cl)Cl (stereo not drawn)
Result block: inactive

Query block: Answer with the recorded outcome for the molecule listed here: `CCOP(=S)(OCC)Oc1cc(C)nc(C(C)C)n1`
Result block: inactive

---

assay: qHTS assay for small molecule agonists of the antioxidant response element (ARE) signaling pathway (AID 743202); conditions: HepG2 ARE-bla reporter, beta-lactamase FRET, 16 h; series mostly up to 73.3 µM; also: % is scaled to controls: 0 for no effect and ±100 for the full control effect
Records with an inconclusive call do not appear. Active and inactive are the calls of the source. Calls come from the whole dose curve; as a rule, active = well fitted activation curve with a large enough effect in the signal ratio in the repeat runs (not every such curve was filed as active); inconclusive = weak or mixed curves, or effect the other way; inactive = no such curve, though single readings can be large or run the other way; the % refers to the signal ratio.
One label from this list, please: 1.0 for active, 0.0 for inactive

Query block: For `O=[N+]([O-])c1ccc(Cl)cc1` , what call appears in the results of this test?
Result block: 0.0

Query block: For `CNC(=O)O/N=C/C(C)(C)SC` , what call appears in the results of this test?
Result block: 0.0

Query block: For `Cc1cccc(C)c1N` , what call appears in the results of this test?
Result block: 0.0

Query block: For `Cc1ccccc1N` , what call appears in the results of this test?
Result block: 0.0

Others:
Query block: For `FC(F)(F)c1ccc(Cl)cc1` , what call appears in the results of this test?
Result block: 0.0

Query block: For `N#CN=C(N)N` , what call appears in the results of this test?
Result block: 0.0

Query block: For CC(=O)C1CCOC1=O (centres undefined) , what call appears in the results of this test?
Result block: 0.0

Query block: For `CCNc1nc(Cl)nc(NC(C)C)n1` , what call appears in the results of this test?
Result block: 0.0

Query block: For `COS(=O)(=O)OC` , what call appears in the results of this test?
Result block: 0.0

---

experiment: qHTS assay to identify small molecule agonists of the AP-1 signaling pathway (AID 1159526); conditions: ME-180 (cervical carcinoma) AP-1-bla reporter, beta-lactamase FRET ratio, 5 h; series mostly up to 76.8 µM; also: % is scaled to controls: 0 for no effect and ±100 for the full control effect
Results filed as inconclusive are left out. Active and inactive are the calls of the source. Calls come from the whole dose curve.
observable: outcome

Query block: Answer with the recorded outcome for the compound listed here: `O=C(O)Cc1ccccc1`
Result block: inactive

Query block: Answer with the recorded outcome for the compound listed here: `CN(C)C(=O)C(c1ccccc1)c1ccccc1`
Result block: inactive

Query block: Answer with the recorded outcome for the compound listed here: `Cc1ccc(O)c(C)c1`
Result block: inactive

Query block: Answer with the recorded outcome for the compound listed here: `CNC(=O)Oc1cccc2ccccc12`
Result block: inactive

Query block: Answer with the recorded outcome for the compound listed here: `O=C(O)c1cc(Oc2ccc(C(F)(F)F)cc2Cl)ccc1[N+](=O)[O-]`
Result block: inactive

Others:
Query block: Answer with the recorded outcome for the compound listed here: `COP(=S)(OC)SCN1C(=O)c2ccccc2C1=O`
Result block: inactive

Query block: Answer with the recorded outcome for the compound listed here: C=C(C)C(=O)OCC(CC)CCCC (stereo unspecified)
Result block: inactive

Query block: Answer with the recorded outcome for the compound listed here: `COc1nc(NC(C)C)nc(NC(C)C)n1`
Result block: inactive

Query block: Answer with the recorded outcome for the compound listed here: `N#Cc1ccccn1`
Result block: inactive

Query block: Answer with the recorded outcome for the compound listed here: `Cc1cccc(N)c1`
Result block: inactive

Query block: Answer with the recorded outcome for the compound listed here: `CCCCCCCCCCCCCCCCCC(=O)O`
Result block: inactive

---

experiment: qHTS assay for small molecule disruptors of the mitochondrial membrane potential (AID 720635); details: HepG2 mitochondrial membrane potential, Mito-MPS dye ratio; series mostly up to 83.2 µM; also: % is scaled to controls: 0 for no effect and ±100 for the full control effect
Inconclusive results are not listed. Active and inactive are the calls of the source. Calls follow the shape of the dose curve; as a rule, active = well fitted inhibition curve with a large enough effect in the signal ratio in the repeat runs; inconclusive = weak or mixed curves, or effect the other way; inactive = flat fitted curve, though single readings scatter; the % refers to the signal ratio.
One label from this list, please: active, inactive

Query block: For `NNc1ccccc1` , what call appears in the results of this test?
Result block: inactive

Query block: For `O=[N+]([O-])c1ccc(Cl)cc1` , what call appears in the results of this test?
Result block: inactive

Others:
Query block: For `O=C(O)C(Br)Br` , what call appears in the results of this test?
Result block: inactive

Query block: For `C=CC(=O)OCCCCCC(C)C` , what call appears in the results of this test?
Result block: inactive

Query block: For `OCCCCO` , what call appears in the results of this test?
Result block: inactive

Query block: For `Nc1nc(N)nc(NC2CC2)n1` , what call appears in the results of this test?
Result block: inactive

Query block: For O=C(O)C1C(C(=O)O)C2(Cl)C(Cl)=C(Cl)C1(Cl)C2(Cl)Cl (stereo not drawn) , what call appears in the results of this test?
Result block: inactive

Query block: For `CN(C)NC(=O)CCC(=O)O` , what call appears in the results of this test?
Result block: inactive

Query block: For `CC(C)CCCCCCOC(=O)c1ccccc1C(=O)OCCCCCCC(C)C` , what call appears in the results of this test?
Result block: inactive

Query block: For `C=CC#N` , what call appears in the results of this test?
Result block: inactive

Query block: For OCC(O)CCl (stereo not drawn) , what call appears in the results of this test?
Result block: inactive

Query block: For `CCSC(=O)N1CCCCCC1` , what call appears in the results of this test?
Result block: inactive

Query block: For `CC(C)(C)C(=O)CCl` , what call appears in the results of this test?
Result block: inactive

Query block: For `CN(C)C(=O)Nc1cccc(C(F)(F)F)c1` , what call appears in the results of this test?
Result block: inactive

Query block: For `O=[N+]([O-])c1ccc(Cl)c(Cl)c1` , what call appears in the results of this test?
Result block: inactive
